- target-under-test: T1, human CDH6 on cells (human, UniProt P55285 54-790)
- T1 sequence: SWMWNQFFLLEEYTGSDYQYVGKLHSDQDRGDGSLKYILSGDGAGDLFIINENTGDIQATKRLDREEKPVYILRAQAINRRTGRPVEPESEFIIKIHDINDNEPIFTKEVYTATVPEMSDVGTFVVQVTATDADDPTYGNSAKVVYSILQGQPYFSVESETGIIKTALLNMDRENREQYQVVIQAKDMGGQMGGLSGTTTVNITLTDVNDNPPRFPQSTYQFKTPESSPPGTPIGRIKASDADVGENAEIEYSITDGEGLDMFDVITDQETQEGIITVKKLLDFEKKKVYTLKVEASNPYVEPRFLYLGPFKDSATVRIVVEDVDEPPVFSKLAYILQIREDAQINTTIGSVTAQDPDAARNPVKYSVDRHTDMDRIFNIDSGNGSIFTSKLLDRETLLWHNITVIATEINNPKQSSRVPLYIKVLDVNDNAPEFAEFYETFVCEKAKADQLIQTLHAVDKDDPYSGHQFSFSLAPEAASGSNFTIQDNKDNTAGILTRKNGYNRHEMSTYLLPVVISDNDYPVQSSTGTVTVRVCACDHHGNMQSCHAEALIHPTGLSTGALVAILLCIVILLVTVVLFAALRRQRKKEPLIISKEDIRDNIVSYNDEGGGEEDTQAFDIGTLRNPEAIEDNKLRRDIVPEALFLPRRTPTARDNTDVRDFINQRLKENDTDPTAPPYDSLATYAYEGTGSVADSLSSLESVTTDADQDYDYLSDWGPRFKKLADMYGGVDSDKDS
- assay-text: cell-based or functional assay
Overview of recorded percent inhibition at 1.22 nM ADC, KNS42 cells for various binders
Write down the numeric answer in % and omit the unit.

| binder | unit | reported-value |
| --- | --- | --- |
| NOV0693-SMCC-DM1 (antibody, human IgG1, kappa, V domains shown, SMCC-DM1 on primary amines, sites not stated) VH: QVQLLESGGGLVQPGGSLRLSCAASGFTFSSYALHWVRQAPGKGLEWVSYIFYDSSSTYYADSVKGRFTISRDNSKNTLYLQMNSLRAEDTAVYYCARFLYSAYGVANWGQGTLVTVSS VL: DIQMTQSPSSLSASVGDRVTITCRASQSISFYLAWYQQKPGKAPKLLIYGASTLQSGVPSRFSGSGSGTDFTLTISSLQPEDFATYYCHQYSYWLRTFGQGTKVEIKR | % | 15.2 |

Now, please, on to the next binder.
Query :: Specify measured percent inhibition at 1.22 nM ADC, KNS42 cells for NOV0682-SMCC-DM1 (antibody, human IgG1, kappa, V domains shown, SMCC-DM1 on primary amines, sites not stated) VH: QVQLVESGGGLVKPGGSLRLSCAASGFTFSSYAISWVRQAPGKGLEWVGFIKSNADGYTTNYAAPVKGRFTISRDDSKNTLYLQMNSLKTEDTAVYYCARIRYFRNWDYWGQGTLVTVSS VL: DIQMTQSPSSLSASVGDRVTITCRASQTINSYLNWYQQKPGKAPKLLIYRASNLQSGVPSRFSGSGSGTDFTLTISSLQPEDFATYYCQQGDSSWTFGQGTKVEIKR .
Result :: 23.8
